Cited source for all entries: PubChem BioAssay (NCI)

system: IGROV1 ovarian; assay: NCI tumour cell line growth inhibition, 48 h
quantity_measured: TGI

{"compound": "COC1=CC(=O)C2C(C1=O)C(c1ccc(Cl)cc1)[C@@H]2C (stereo partly drawn)", "value": "> 100 µM"}
{"compound": "CCCCCCCCCCCC(=O)OC(COC(N)=O)COc1ccc(Cl)cc1 (stereo not drawn)", "value": "81.2 µM"}
{"compound": "N#CC1=C(N)OC(c2cccc([N+](=O)[O-])c2)C1(C#N)C#N (stereo not drawn)", "value": "35.4 µM"}
{"compound": "COC(CC1(OC)OC(=O)C=C1N)OC (stereo not drawn)", "value": "> 100 µM"}
{"compound": "COc1c(Br)cc(/C=C(\\C#N)c2ccccn2)cc1Br", "value": "> 100 µM"}
{"compound": "COC(=O)N/N=C(\\c1ccccc1)c1ccc(OC)cc1", "value": "> 100 µM"}
{"compound": "N=C(N)SCc1cccc([N+](=O)[O-])c1", "value": "> 100 µM"}
{"compound": "ClCCCCOC1CCCCO1 (stereo not drawn)", "value": "> 100 µM"}
{"compound": "N#C/C(C(=O)Nc1ccc(Cl)cc1)=C(/N)N1CCOCC1", "value": "> 100 µM"}
{"compound": "Cc1cc2c(cc1Cl)N1C(=O)NS(=O)(=O)N=C1NS2(=O)=O", "value": "> 100 µM"}
{"compound": "CCOC(=O)CC(NCc1ccc(N=Cc2nc3ccc(C(F)(F)F)cc3nc2-c2ccccc2)cc1)C(=O)OCC (stereo not drawn)", "value": "> 100 µM"}
{"compound": "COCCOC1=C(Cl)C(=O)c2c(O)ccc(O)c2C1=O", "value": "6.27 µM"}
{"compound": "CC1(C)CC(N2CCN(C3CC(C)(C)NC(C)(C)C3)CC2)CC(C)(C)N1", "value": "> 100 µM"}
{"compound": "CC1CC(c2ccc(Cl)c(Cl)c2)=Nc2ccccc2S1 (stereo not drawn)", "value": "> 100 µM"}
{"compound": "CCOC(=O)c1c2ccc(/C=C/c3ccccc3)ccc-2c(C(=O)OCC)c1N", "value": "> 100 µM"}
{"compound": "Cc1ccc(S(=O)(=O)N/N=C2\\CC(C)OC3=C2CCCCCC3)cc1 (stereo not drawn)", "value": "38.2 µM"}
{"compound": "Cn1ccoc1=Nc1ccc(Cl)c(Cl)c1", "value": "> 10 µM"}
{"compound": "Cc1cc2cc3ccccc3cc2c(=O)[nH]1", "value": "> 10 µM"}
